Reference source for all entries: ChEMBL document CHEMBL1144082

system: KB; assay: Cytotoxicity against human KB cells after 72 hrs by SRB method; format: functional; conditions: read-out: ED50 (the source's name)
EXPERIMENTAL ENDPOINT: EC50 (µg/mL)

- MOLECULE: "C/C=C(\\C)C(=O)O[C@H]1[C@H](O)[C@@H](O)[C@H](O[C@@H]2[C@H]3OC(=O)CCCCCCCCC[C@H](CCCCC)O[C@@H]4O[C@H](C)[C@@H](O)[C@H](O)[C@H]4O[C@@H]4O[C@H](CO)[C@@H](O)[C@H](O)[C@H]4O[C@H](O[C@H]2C)[C@@H]3OC(=O)[C@@H](C)CC)O[C@@H]1C [SCAMMONIN I]"
  U: "µg/mL"
  MEASURED RESULT: 7
- MOLECULE: "CCCCC[C@H]1CCCCCCCCCC(=O)O[C@@H]2[C@@H](O[C@@H]3O[C@H](C)[C@@H](OC(=O)[C@H](C)[C@@H](C)O)[C@H](O)[C@H]3O)[C@H](C)O[C@@H](O[C@H]3[C@H](O[C@H]4[C@H](O1)O[C@H](C)[C@@H](O)[C@@H]4O)O[C@H](CO)[C@@H](O)[C@@H]3O)[C@@H]2OC(=O)[C@@H](C)CC [ORIZABIN V]"
  U: "µg/mL"
  MEASURED RESULT: 7
- MOLECULE: "CCCCC[C@H]1CCCCCCCCCC(=O)O[C@@H]2[C@@H](O[C@@H]3O[C@H](C)[C@@H](O)[C@H](O)[C@H]3O)[C@H](C)O[C@@H](O[C@H]3[C@H](O[C@H]4[C@H](O1)O[C@H](C)[C@@H](O)[C@@H]4O)O[C@H](COC(=O)[C@H](C)[C@@H](C)O)[C@@H](O)[C@@H]3O)[C@@H]2OC(=O)[C@@H](C)CC [ORIZABIN VII]"
  U: "µg/mL"
  MEASURED RESULT: 7
